B1: HDV Ribozyme (parent)
chain: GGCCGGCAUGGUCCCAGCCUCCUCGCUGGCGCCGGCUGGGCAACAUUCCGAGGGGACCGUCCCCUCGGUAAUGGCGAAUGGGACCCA

# Variants of: B1
# Protocol description: self-cleavage, relative activity (ratio to wild type); higher = more cleavage; co-transcriptional
Readout label: self-cleavage
No unit in the answer, please; the number alone is enough.

Observe how each entry below is paired with its result.
[[record]]
variant_key = "U23G C24A"
readout_label = "self-cleavage"
test_value = 0.706

[[record]]
variant_key = "A8G U79A"
readout_label = "self-cleavage"
test_value = 0.692

[[record]]
variant_key = "C13U C86G"
readout_label = "self-cleavage"
test_value = 0.692

[[record]]
variant_key = "C63G U79C"
readout_label = "self-cleavage"
test_value = 0.697

[[record]]
variant_key = "C33G C44A"
readout_label = "self-cleavage"
test_value = 0.0978


Here is the next item to consider.
The variant listed as C24U C85U shows self-cleavage equal to 0.718
